Target: T1, soluble extracellular domain of human IL-5 receptor alpha subunit (sIL-5Rα) (human, UniProt Q01344 21-333)
T1 chain: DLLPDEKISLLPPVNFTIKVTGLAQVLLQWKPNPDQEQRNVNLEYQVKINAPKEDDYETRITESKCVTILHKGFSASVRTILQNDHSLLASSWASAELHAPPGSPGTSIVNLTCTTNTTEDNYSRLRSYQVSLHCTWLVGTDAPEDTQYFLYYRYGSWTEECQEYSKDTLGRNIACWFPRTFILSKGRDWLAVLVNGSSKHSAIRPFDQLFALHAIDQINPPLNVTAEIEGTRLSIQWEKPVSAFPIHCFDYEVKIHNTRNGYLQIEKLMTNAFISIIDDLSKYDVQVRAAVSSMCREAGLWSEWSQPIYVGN
Assay: ELISA; competition with plate-immobilized IL-5-mFc
Recorded Metric: IC50 (nM)
Numeric only. Scale: nM

The reported IC50 of the binder 5R86 (antibody, V domains shown, Human IgG1, kappa; selected as scFab by yeast display from the hu2B7 VH-CDR2 library; source: HEK293F, purified (Protein A)) VH: QVQLVQSGAEVKKPGSSVKVSCKASGYTFTSYWINWVRQAPGQGLEWIGHIYPTSSVKFYNNKFKDKATLTVDKSTNTAYMELSSLRSEDTAVYYCTRDYYGRSYYYAMDYWGQGTTLTVSS VL: DIQMTQSPSTLSASVGDRVTITCKASQNVGTAVAWYQQKPGKAPKLLIYWASTRHTGVPDRFSGSGSGTDFTLTISSLQPDDFATYYCQQFGRYPYTFGSGTKVEVK was 14.1

Values were extracted from paper PMC7820887.
